MEASUREMENT TARGET: ATR kinase (Homo sapiens (Human))
Sequence (Q13535 whole entry, looked up): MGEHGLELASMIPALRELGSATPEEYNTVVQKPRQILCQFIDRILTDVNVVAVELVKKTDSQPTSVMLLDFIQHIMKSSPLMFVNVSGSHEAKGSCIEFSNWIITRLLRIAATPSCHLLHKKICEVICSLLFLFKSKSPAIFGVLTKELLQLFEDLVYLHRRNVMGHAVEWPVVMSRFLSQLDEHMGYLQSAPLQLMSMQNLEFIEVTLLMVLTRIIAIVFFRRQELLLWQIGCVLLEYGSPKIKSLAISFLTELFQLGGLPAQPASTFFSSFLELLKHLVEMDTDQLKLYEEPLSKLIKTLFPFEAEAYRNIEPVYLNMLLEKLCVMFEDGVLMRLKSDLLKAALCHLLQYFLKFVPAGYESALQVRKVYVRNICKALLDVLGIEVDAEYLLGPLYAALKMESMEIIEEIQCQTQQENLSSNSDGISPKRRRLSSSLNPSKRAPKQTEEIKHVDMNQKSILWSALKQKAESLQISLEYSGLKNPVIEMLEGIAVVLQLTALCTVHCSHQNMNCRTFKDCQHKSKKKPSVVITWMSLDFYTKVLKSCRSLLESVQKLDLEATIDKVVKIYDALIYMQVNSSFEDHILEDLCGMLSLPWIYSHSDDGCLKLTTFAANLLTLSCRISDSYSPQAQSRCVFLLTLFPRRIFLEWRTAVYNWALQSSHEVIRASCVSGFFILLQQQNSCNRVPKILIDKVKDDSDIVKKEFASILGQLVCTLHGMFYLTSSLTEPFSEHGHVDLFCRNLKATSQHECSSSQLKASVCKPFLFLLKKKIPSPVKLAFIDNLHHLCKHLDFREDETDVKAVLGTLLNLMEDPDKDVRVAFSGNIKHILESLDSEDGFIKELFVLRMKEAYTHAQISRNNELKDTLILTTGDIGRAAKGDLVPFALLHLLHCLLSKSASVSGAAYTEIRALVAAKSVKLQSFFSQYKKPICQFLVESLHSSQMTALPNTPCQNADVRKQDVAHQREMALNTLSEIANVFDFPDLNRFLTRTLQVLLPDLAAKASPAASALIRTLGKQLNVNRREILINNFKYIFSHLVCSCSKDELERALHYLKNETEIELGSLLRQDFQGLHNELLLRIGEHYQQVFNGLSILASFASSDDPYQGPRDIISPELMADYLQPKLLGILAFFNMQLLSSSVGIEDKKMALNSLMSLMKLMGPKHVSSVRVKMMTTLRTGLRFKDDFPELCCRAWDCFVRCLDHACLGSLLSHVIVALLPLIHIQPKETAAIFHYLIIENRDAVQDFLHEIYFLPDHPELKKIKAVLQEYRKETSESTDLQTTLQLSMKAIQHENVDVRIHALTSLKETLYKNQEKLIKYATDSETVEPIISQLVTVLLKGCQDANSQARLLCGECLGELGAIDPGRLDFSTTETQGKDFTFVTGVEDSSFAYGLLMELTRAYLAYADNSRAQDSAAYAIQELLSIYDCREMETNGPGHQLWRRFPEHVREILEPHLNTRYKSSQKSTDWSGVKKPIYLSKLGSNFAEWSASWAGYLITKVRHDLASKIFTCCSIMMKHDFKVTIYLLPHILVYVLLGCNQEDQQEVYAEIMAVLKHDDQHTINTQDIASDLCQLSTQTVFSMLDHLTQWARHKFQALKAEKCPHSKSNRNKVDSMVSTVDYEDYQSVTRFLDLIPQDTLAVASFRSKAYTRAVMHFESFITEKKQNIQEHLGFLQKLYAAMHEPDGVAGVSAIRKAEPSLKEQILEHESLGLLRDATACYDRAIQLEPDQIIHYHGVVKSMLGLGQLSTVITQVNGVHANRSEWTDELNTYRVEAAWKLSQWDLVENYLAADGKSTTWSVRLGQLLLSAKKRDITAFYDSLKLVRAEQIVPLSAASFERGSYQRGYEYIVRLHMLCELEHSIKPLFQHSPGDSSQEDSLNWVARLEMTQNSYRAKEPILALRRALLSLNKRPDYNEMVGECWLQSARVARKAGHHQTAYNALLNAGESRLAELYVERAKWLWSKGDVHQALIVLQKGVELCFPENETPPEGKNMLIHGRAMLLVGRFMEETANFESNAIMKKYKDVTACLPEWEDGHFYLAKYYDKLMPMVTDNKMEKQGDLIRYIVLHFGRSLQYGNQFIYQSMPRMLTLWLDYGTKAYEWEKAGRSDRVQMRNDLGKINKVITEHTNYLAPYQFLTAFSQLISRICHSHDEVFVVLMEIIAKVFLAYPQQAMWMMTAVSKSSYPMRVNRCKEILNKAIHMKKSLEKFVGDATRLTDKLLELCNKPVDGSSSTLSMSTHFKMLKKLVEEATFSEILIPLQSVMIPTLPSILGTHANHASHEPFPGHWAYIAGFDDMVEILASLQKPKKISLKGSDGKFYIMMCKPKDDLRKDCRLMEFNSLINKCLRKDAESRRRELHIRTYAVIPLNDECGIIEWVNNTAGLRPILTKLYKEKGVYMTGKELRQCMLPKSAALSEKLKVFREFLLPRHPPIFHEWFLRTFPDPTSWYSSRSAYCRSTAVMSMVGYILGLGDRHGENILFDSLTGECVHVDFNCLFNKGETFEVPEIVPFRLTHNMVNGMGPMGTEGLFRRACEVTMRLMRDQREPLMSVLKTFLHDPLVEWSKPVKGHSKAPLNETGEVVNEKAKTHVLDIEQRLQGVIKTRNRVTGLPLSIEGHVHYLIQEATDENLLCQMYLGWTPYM
Sequence (Q8WXE1 whole entry partner, looked up): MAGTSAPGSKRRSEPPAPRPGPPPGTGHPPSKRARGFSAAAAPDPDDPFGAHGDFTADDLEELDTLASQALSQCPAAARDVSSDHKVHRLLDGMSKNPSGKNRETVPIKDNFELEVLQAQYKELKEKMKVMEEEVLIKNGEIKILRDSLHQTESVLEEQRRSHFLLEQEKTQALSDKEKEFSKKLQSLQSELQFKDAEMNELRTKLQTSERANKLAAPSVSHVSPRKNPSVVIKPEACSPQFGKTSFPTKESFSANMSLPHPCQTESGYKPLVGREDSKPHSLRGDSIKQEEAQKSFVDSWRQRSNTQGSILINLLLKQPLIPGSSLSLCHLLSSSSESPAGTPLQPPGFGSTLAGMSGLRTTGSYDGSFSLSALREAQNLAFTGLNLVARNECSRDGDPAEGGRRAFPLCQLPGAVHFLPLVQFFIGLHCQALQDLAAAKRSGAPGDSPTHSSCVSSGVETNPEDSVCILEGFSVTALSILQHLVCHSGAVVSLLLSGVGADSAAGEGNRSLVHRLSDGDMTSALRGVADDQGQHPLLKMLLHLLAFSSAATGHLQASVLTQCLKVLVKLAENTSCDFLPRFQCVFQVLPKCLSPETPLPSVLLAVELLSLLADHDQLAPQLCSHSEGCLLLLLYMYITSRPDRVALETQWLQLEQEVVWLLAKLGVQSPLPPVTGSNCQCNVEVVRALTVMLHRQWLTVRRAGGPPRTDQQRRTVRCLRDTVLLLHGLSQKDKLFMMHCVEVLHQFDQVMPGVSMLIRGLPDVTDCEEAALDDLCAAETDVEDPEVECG
PROTOCOL TEXT: Assay of ATR kinase activity (time-resolved fluorescence, phosphorylation of p53-derived protein)
Assay type: biochemical
APPLIED CONDITIONS: ATR/ATRIP, p53 substrate, 30 minutes at room temperature
Each item that follows carries a reported IC50.
Entry rule: numbers only, all in nM.

SMI: Cc1nn(-c2cncc(F)c2)c(C)c1-c1cc(N2CCOC[C@H]2C)nc2c(-c3ccn[nH]3)cnn12
QUANTITY: IC50
OBSERVED: 2
//
SMI: Cc1nn(C2CCNCC2)c(C(F)(F)F)c1-c1cc(N2CCOC[C@H]2C)nc2c(-c3cccs3)cnn12
QUANTITY: IC50
OBSERVED: 12
//
SMI: Cc1nn(-c2cncc(C(N)=O)c2)c(C)c1-c1cc(N2CCOC[C@H]2C)nc2c(-c3ccn[nH]3)cnn12
QUANTITY: IC50
OBSERVED: 3

// next entry
Tell us which IC50 value is on record for C[C@@H]1COCCN1c1cc(-c2cccnc2C(F)(F)F)n2ncc(-c3ccn[nH]3)c2n1
52
